# ASSAYED_TARGET: T1, FZD5 CRD (Homo sapiens, UniProt Q13467)
# T1 construct: K29-T156; GPI anchor signal (C); expressed in transfected cells; host or cells: CHO cells, lentiviral pLenti-puro
# T1 sequence (Q13467 29-156): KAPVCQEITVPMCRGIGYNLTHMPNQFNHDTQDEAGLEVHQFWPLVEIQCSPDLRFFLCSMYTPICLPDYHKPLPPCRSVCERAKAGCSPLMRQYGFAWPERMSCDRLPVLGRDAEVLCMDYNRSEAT
# MEASUREMENT_DESCRIPTION: Immunofluorescence of anti-FZD5 Fab binding to CHO cells overexpressing Frizzled CRD
# Parameters: key: −: no binding; +: very weak binder; ++: weak binder; +++: good binder; ++++: very good binder
QUANTITY_NAME: Immunofluorescence binding, Frizzled CRD overexpressed on CHO cells: FZD5

| MOLECULE | REPORTED_RESULT |
| --- | --- |
| Fab-2907: anti-FZD5 Fab with antibody variable region Fv-2907; CDR SEQ ID NOs: 35, 36, 46, 85, 122, 159 (antibody, V domains shown) VH: EVQLVESGGGLVQPGGSLRLSCAASGFNIYSSYMHWVRQAPGKGLEWVASISSYSGSTYYADSVKGRFTISADTSKNTAYLQMNSLRAEDTAVYYCARSSWGAYIVSYGFDYWGQGTLVTVSS VL: DIQMTQSPSSLSASVGDRVTITCRASQSVSSAVAWYQQKPGKAPKLLIYSASSLYSGVPSRFSGSRSGTDFTLTISSLQPEDFATYYCQQVGYWWGLITFGQGTKVEIK | ++++ |
| Fab-2899: anti-FZD5 Fab with antibody variable region Fv-2899; CDR SEQ ID NOs: 35, 36, 38, 77, 114, 153 (antibody, V domains shown) VH: EVQLVESGGGLVQPGGSLRLSCAASGFNLYYYYMHWVRQAPGKGLEWVASIYPSSGSTSYADSVKGRFTISADTSKNTAYLQMNSLRAEDTAVYYCARGALDYWGQGTLVTVSS VL: DIQMTQSPSSLSASVGDRVTITCRASQSVSSAVAWYQQKPGKAPKLLIYSASSLYSGVPSRFSGSRSGTDFTLTISSLQPEDFATYYCQQWYSSYGLITFGQGTKVEIK | +++ |
